studyTarget: Progesterone receptor (Homo sapiens, UniProt P06401)
Sequence (P06401 whole entry): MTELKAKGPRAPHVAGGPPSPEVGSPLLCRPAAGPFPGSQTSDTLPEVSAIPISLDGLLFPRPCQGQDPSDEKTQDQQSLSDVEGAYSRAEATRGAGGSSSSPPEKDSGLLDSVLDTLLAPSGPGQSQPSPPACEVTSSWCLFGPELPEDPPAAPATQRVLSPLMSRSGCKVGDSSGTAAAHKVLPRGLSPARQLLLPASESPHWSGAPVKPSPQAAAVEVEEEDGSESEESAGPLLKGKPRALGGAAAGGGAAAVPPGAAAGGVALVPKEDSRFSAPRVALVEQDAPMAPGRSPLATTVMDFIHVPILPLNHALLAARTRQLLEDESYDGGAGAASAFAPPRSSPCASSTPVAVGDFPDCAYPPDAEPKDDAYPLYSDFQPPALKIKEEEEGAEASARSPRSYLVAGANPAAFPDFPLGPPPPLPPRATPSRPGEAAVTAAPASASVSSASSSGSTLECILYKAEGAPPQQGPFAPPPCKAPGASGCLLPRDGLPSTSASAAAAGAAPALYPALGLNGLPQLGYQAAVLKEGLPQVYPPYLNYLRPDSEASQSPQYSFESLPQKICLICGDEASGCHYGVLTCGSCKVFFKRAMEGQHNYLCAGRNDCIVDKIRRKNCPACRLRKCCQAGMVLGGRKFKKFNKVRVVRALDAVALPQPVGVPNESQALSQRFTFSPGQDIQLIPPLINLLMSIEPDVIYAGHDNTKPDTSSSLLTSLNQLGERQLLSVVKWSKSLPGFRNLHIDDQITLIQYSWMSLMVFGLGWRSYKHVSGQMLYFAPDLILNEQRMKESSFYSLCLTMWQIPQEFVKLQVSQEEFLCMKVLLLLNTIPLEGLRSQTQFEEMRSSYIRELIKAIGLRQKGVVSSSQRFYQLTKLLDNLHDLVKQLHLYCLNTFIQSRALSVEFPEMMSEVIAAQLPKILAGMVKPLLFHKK
assayText: Activity at progesterone receptor assessed as alkaline phosphatase activity in human T47D cells
quantityName: pEC50
pEC50 here: minus log base 10 of the concentration, concentration in moles per litre.

Give its pEC50 value. Item: Cn1c(C#N)ccc1-c1ccc2c(c1)C(C)(c1ccsc1)OCC(=O)N2 (stereo not drawn) 9.10

Give its pEC50 value. Item: N#Cc1ccc(-c2ccc3c(c2)C2(CCCCC2)OCC(=O)N3)[nH]1 7.52

Give its pEC50 value. Item: Cn1c(C#N)ccc1-c1ccc2c(c1)C(C)(c1cccs1)OCC(=O)N2 (stereo not drawn) 9.10

Give its pEC50 value. Item: CC1OCC(=O)Nc2ccc(-c3ccc(C#N)[nH]3)cc21 (stereo not drawn) 6.61

Give its pEC50 value. Item: Cn1c(C#N)ccc1-c1ccc2c(c1)C(C)(c1ccco1)OCC(=O)N2 (stereo not drawn) 9.40

Give its pEC50 value. Item: C[C@]1(c2ccsc2)OCC(=O)Nc2ccc(-c3ccc(C#N)[nH]3)cc21 6.96

Give its pEC50 value. Item: CC1OCC(=O)Nc2ccc(-c3ccc(C#N)n3C)cc21 (stereo not drawn) 6.86

Give its pEC50 value. Item: CC1(c2cccs2)OCC(=O)Nc2ccc(-c3ccc(C#N)[nH]3)cc21 (stereo not drawn) 9.15

Give its pEC50 value. Item: C[C@@]1(c2ccsc2)OCC(=O)Nc2ccc(-c3ccc(C#N)[nH]3)cc21 9.30

Give its pEC50 value. Item: CC1(C)OCC(=O)Nc2ccc(-c3ccc(C#N)[nH]3)cc21 8.48

Give its pEC50 value. Item: CN1C(=O)COC(C)(c2cccs2)c2cc(-c3ccc(C#N)n3C)ccc21 (stereo not drawn) 7.43

Give its pEC50 value. Item: Cn1c(C#N)ccc1-c1ccc2c(c1)C(C)(C)OCC(=O)N2 8.48

Give its pEC50 value. Item: CC1(c2ccsc2)OCC(=O)Nc2ccc(-c3ccc(C#N)[nH]3)cc21 (stereo not drawn) 8.96
